- Tested on: COLO 205
- PROTOCOL: NCI tumour cell line growth inhibition, 48 h
The source made the active and inactive calls. No stated cut-off is given here; in the data, active = GI50 up to about 1.1 µM and inactive = higher.
PROPERTY NAME: GI50

Lookup: Answer with reported GI50 of CN(C)C(=S)N=C(Nc1ccccc1)Nc1ccccc1
Found: > 100 µM (inactive)

Lookup: Read the entry Nc1nc(=O)n(C2CC(O)C(O)C(CO)O2)cc1F (stereo unspecified) and write its reported GI50.
Found: > 100 µM (inactive)

Lookup: Please indicate GI50 recorded for NC(=S)N/N=C/C(O[C@@H](/C=N/NC(N)=S)CO)n1cnc2c(N)ncnc21 (stereo partly specified)
Found: > 49.8 µM (inactive)

Lookup: Entry CN1CCN=C1c1nnn(-c2ccc([N+](=O)[O-])cc2)c1-c1ccccc1 needs its GI50 filled in; supply it.
Found: > 100 µM (inactive)

Lookup: Specify measured GI50 for O=P1(C(O)/C=C/c2ccccc2)N(Cc2ccccc2)[C@@H]2CCCC[C@H]2N1Cc1ccccc1 (stereo partly specified) .
Found: 2.42 µM (inactive)

Lookup: Quick one: give measured GI50 for Cc1ccc2c(c1)CC1(C2)Cc2ccc(C)cc2C1=O (stereo unspecified)
Found: 15.4 µM (inactive)

Lookup: For the compound Nc1nc(N)nc(CCCc2nc(N)nc(N)n2)n1 , report GI50.
Found: > 100 µM (inactive)

Lookup: Indicate its recorded GI50; the compound in question is Cc1cc(S(=O)(=O)Nc2nncn2-c2ccc(Cl)cc2)c(S)cc1Cl
Found: > 10 µM (inactive)

Lookup: Please list GI50 recorded for the compound COc1cc(C2C(C#N)=C(N)OC3=C2CCS(=O)(=O)c2ccc(C)cc23)cc(OC)c1OC (stereo unspecified)
Found: > 100 µM (inactive)

Lookup: Consider the compound CCOC(=O)C1C(=O)CN2CCc3c([nH]c4ccccc34)C12C(=O)OCC (stereo unspecified) and give its recorded GI50.
Found: > 100 µM (inactive)

Lookup: Note GI50 for the compound shown: CCOC(=O)c1nc2ccccc2n(CC)c1=O
Found: > 100 µM (inactive)
